Tested on: A549 NSCLC
Assay: NCI tumour cell line growth inhibition, 48 h
quantity: GI50

Quick one: GI50 for C/C([O-])=C1\Cc2ccccc2C1=O.C/C([O-])=C1\Cc2ccccc2C1=O.CC[O-].CC[O-].[Ti+4] ?
28.5 µM

Quick one: GI50 for COc1ccc(C/C(C)=C(\c2ccc(OCCN3CCOCC3)cc2)c2ccc(OC(=O)Cc3ccccc3)cc2)cc1 ?
1.02 µM

Quick one: GI50 for COc1ccc(C(=O)COc2cccc(/C=C3\CSc4ccccc4C3=O)c2)cc1 ?
9.04 µM

Quick one: GI50 for COc1ccc(-c2cc(-c3ccccc3)nc(N3CCN(CCNc4ccnc5cc(Cl)ccc45)CC3)n2)cc1 ?
1.9 µM

Quick one: GI50 for COc1ccc(-c2nnc(SCC(=O)Nc3ccc(/C(C)=N\O)cc3)n2-c2ccccc2)cc1OC ?
9.73 µM

Quick one: GI50 for CCCCCCC#Cc1ccccc1C#CCO ?
20.7 µM

Quick one: GI50 for CC(C)(O)C1CCC(Nc2ccc3ncc(-c4cccc(C(F)(F)F)c4)n3n2)CC1 (centres undefined) ?
3.1 µM

Quick one: GI50 for N#Cc1c(N)nc(N2CCOCC2)c(C#N)c1-c1ccc(Cl)cc1 ?
42.6 µM

Quick one: GI50 for COc1ccc(C(=O)/C=C/c2c(C(F)(F)F)nc3sccn23)cc1OC ?
4.65 µM
